Origin of values: PubChem BioAssay (NCI)

experiment: NCI Yeast Anticancer Drug Screen. Data for the mec2-1 strain (AID 157); details: S. cerevisiae mec2-1 strain, at 5.0 µM (retest, dose inferred, filed as 0.5), active compounds read high
The panel holds about 79,000 compounds, 15% with a hit somewhere; the sample as a whole holds those more often.
measurement_kind: growth inhibition (%)
Numbers only; they are read as %.

The cases that follow already have their growth inhibition on record.
• CC(C)(C)c1ccc(CCO)cc1 = -2
• Nc1nc(N)c2cc(Sc3cccc(C(F)(F)F)c3)ccc2n1 = 18
• O=[N+]([O-])c1ccc([I+]c2ccccc2)cc1 = 40

Given O=C(c1ccccc1)N(CCCl)C(=O)N(CCCl)C(=O)c1ccccc1 , state its recorded growth inhibition.
68

Given CC12CCC(O)CC1=CCC1C2CCC2(C)C3=NN=CC3CC12 (configuration not stated) , state its recorded growth inhibition.
16

Given O=[N+]([O-])c1cc(-c2ccccc2)c(O)c([N+](=O)[O-])c1 , state its recorded growth inhibition.
22

Given C/C=C/c1cc2c(c(=O)o1)C(=O)[C@@H](O)[C@H](C)O2 , state its recorded growth inhibition.
11
